# TEST TARGET: T1, human tankyrase 1 ankyrin repeat clusters 2-3 (TNKS1 ARC2-3, residues 315-662) (human, UniProt O95271 315-662)
# T1 sequence (looked up): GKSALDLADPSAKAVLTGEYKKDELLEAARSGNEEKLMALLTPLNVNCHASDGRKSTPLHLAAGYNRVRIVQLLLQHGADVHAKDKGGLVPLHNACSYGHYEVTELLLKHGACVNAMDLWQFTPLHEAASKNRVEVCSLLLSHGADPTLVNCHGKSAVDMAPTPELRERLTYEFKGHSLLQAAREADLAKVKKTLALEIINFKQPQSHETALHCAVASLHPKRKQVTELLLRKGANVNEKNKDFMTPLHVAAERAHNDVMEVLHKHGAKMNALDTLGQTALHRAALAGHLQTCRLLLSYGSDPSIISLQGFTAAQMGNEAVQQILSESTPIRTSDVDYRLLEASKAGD
# PROTOCOL NOTES: ITC; TNKS2 ARC4 (160-280 uM) or TNKS1 ARC2-3 (60-150 uM) titrated into the cell with unlabeled peptide (5-15 uM) or Axin1 fragment (8-12 uM); PBS, 0.5 mM TCEP; 25 C; one-site model; stoichiometry = TNKS per peptide or Axin1
# SETTINGS: both partners purified
Bridge positions count the residues as written; N and C are the ends. Square brackets hold non-standard residues; d marks the D form. Aha = [N-]=[N+]=NCC[C@H](N)C(=O)O; m3 = not defined here
So I've got a bunch of binders here, and I need their stoichiometry N values.
Give bare numbers.

Examples from the recorded data:
binder="Ac-REAGDGEE-NH2 [pep1 (unlabeled linear consensus peptide Ac-REAGDGEE)]" number=0.9
binder="Ac-RE[Aha]GDG[Aha]E-NH2 (triazole 3-7 via m3; reading uncertain) [cp4n2m3 (unlabeled)]" number=0.9
binder="human Axin1 residues 1-80 (domain or fragment, UniProt O15169 1-80, looked up) MNIQEQGFPLDLGASFTEDAPRPPVPGEEGELVSTDPRPASYSFCSGKGVGIKGETSTATPRRSDLDLGYEPEGSASPTP" number=2.1
binder="Ac-RE[Aha]GDG[Aha]E-NH2 (bridge 3-7; not fully specified (bridges)) [cp4n2m3c (unlabeled)]" number=1.1

-- ask Endpoint output: stoichiometry N of MNIQEQGFPLDLGASFTEDAPRPPVPGEEGELVSTDPRPASYS (domain or fragment, UniProt O15169 1-43, looked up) [human Axin1 residues 1-43] . Value?
-- reply 1
